Listing: TGI of selected compounds
system: UO-31 renal; experiment: NCI tumour cell line growth inhibition, 48 h
Where a SMILES comes first, the peptide text is derived from it. The star is where a group is joined. Boc = CC(C)(C)OC(=O)*
measurement label: TGI

>  <compound>
Cc1ccccc1NC(=O)C(=O)Cc1cnc2ccccc2n1

>  <target or system>
UO-31 renal

>  <measurement label>
TGI

>  <experimental value>
> 100 µM

$$$$
>  <compound>
N#CC(c1ccccc1)N(CCc1ccccc1)C(=O)Oc1ccccc1 (stereo not given)

>  <target or system>
UO-31 renal

>  <measurement label>
TGI

>  <experimental value>
> 100 µM

$$$$
>  <compound>
O=[N+]([O-])c1ccc(-c2ccccc2)c([As](=O)(O)O)c1

>  <target or system>
UO-31 renal

>  <measurement label>
TGI

>  <experimental value>
44.8 µM

$$$$
>  <compound>
N#CC12Cc3ccc4c(c3-c3cccc(c31)CCN2C(=O)c1ccccc1)OCO4 (stereo not given)

>  <target or system>
UO-31 renal

>  <measurement label>
TGI

>  <experimental value>
> 100 µM

$$$$
>  <compound>
CCOC(=O)C(CC(C)C)NC(=O)C(Cc1ccccc1)NC(=O)CNC(=O)OC(C)(C)C (stereo not drawn) (Boc-Gly-Phe-Leu-OEt; configuration not given here)

>  <target or system>
UO-31 renal

>  <measurement label>
TGI

>  <experimental value>
> 100 µM

$$$$
>  <compound>
Oc1[nH]c2ccc(Cl)cc2c1/C=c1/ccc2c(c1)N=C(c1cc(F)cc(F)c1)N=2

>  <target or system>
UO-31 renal

>  <measurement label>
TGI

>  <experimental value>
> 100 µM

$$$$
>  <compound>
COc1c2ccoc2c(S(=O)(=O)Nc2ccc(Cl)cc2)c2oc(C)cc(=O)c12

>  <target or system>
UO-31 renal

>  <measurement label>
TGI

>  <experimental value>
> 100 µM

$$$$
>  <compound>
O=S(Cc1cc2c(cc1Br)OCO2)c1ccccc1 (stereo not given)

>  <target or system>
UO-31 renal

>  <measurement label>
TGI

>  <experimental value>
> 100 µM

$$$$
>  <compound>
C=C=[CH][Sn]([c]1ccccc1)([c]1ccccc1)[c]1ccccc1

>  <target or system>
UO-31 renal

>  <measurement label>
TGI

>  <experimental value>
3.18 µM

$$$$
>  <compound>
CC(C)(C)c1cc(C(C)(C)C)c2sc(=S)oc2c1O

>  <target or system>
UO-31 renal

>  <measurement label>
TGI

>  <experimental value>
16.2 µM

$$$$
